- Tested on: HSV-1
- PROCEDURE SUMMARY: HSV Antiviral (ELISA) Assay
- Assay type: cell-based, herpes simplex virus type 1
- CONDITION DETAILS: Human alphaherpesvirus 1; Vero cells; read-out: IC50 (ug/ml) HSV
Listed below: IC50 values for each entry.

Prompt: Output measured IC50 for this item: COc1cc(OC)c(NC(=S)Nc2ccc(NC(=O)c3ccco3)c(Cl)c2)cc1Cl
Completion: > 10 µg/mL

Prompt: Output measured IC50 for this item: COc1cc(OC)c(NC(=S)Nc2ccc(NC(=O)c3ccco3)c(C(=O)c3ccccc3)c2)cc1Cl
Completion: > 50 µg/mL

* * *

Listed below: IC50 values for each entry.
- Test system: HSV-1
- PROCEDURE SUMMARY: HSV Antiviral (ELISA) Assay
- Format: cell-based, herpes simplex virus type 1
- CONDITION DETAILS: Human alphaherpesvirus 1; Vero cells; read-out: IC50 (ug/ml) HSV

Prompt: Output measured IC50 for this item: COc1cc(OC)c(NC(=S)Nc2ccc(NC(=O)c3ccco3)c(C#N)c2)cc1Cl
Completion: > 10 µg/mL

Prompt: Output measured IC50 for this item: COc1cc(OC)c(NC(=S)Nc2cc(OC)c(NC(=O)c3ccco3)cc2OC)cc1Cl
Completion: > 10 µg/mL

Prompt: Output measured IC50 for this item: COc1cc(OC)c(NC(=S)Nc2cc(C)c(NC(=O)c3ccco3)cc2Cl)cc1Cl
Completion: > 10 µg/mL
